Test: Ex vivo biodistribution of 177Lu-labeled ligands in PC-3 tumor-bearing mice
Settings: mouse, large intestine, intravenous, 72 h pi, n = 5; read-out: Large intestine uptake

[
  {
    "compound": "CC(C)C[C@@H](CN1CC(F)(F)C[C@H]1C(N)=O)NC(=O)[C@H](Cc1c[nH]cn1)NC(=O)CN(C)C(=O)[C@@H](NC(=O)[C@H](C)NC(=O)[C@H](Cc1c[nH]c2ccccc12)NC(=O)[C@H](CCC(N)=O)NC(=O)[C@@H](Cc1ccccc1)NC(=O)CN1CCC(NC(=O)CN2CCN(CC(=O)O)CCN(CC(=O)O)CCN(CC(=O)O)CC2)CC1)C(C)C [[^177Lu]Lu-LW02080, metal not drawn]",
    "tissue uptake at 72 h / %ID/g": 0.06
  },
  {
    "compound": "CC(C)C[C@H](NC(=O)[C@H](Cc1cnc[nH]1)N(C)C(=O)CNC(=O)[C@@H](NC(=O)[C@H](C)NC(=O)[C@H](Cc1c[nH]c2ccccc12)NC(=O)[C@H](CCC(N)=O)NC(=O)[C@@H](Cc1ccccc1)NC(=O)CN1CCC(NC(=O)CN2CCN(CC(=O)O)CCN(CC(=O)O)CCN(CC(=O)O)CC2)CC1)C(C)(C)C)C(=O)N1CC(F)(F)C[C@H]1C(N)=O [[^177Lu]Lu-LW02060, metal not drawn]",
    "tissue uptake at 72 h / %ID/g": 0.32
  }
]

====

tissue uptake at 1 h: recorded values
Experiment: Ex vivo biodistribution of 177Lu-labeled ligands in PC-3 tumor-bearing mice
Conditions: mouse, heart, intravenous, 1 h pi, n = 5; read-out: Heart uptake
property.name: tissue uptake at 1 h (%ID/g)

[
  {
    "molecule": "CC(C)C[C@@H](CN1CC(F)(F)C[C@H]1C(N)=O)NC(=O)[C@H](Cc1c[nH]cn1)NC(=O)CN(C)C(=O)[C@@H](NC(=O)[C@H](C)NC(=O)[C@H](Cc1c[nH]c2ccccc12)NC(=O)[C@H](CCC(N)=O)NC(=O)[C@@H](Cc1ccccc1)NC(=O)CN1CCC(NC(=O)CN2CCN(CC(=O)O)CCN(CC(=O)O)CCN(CC(=O)O)CC2)CC1)C(C)C [[^177Lu]Lu-LW02080, metal not drawn]",
    "reported.value": 0.13
  },
  {
    "molecule": "CC(C)C[C@H](NC(=O)[C@H](Cc1cnc[nH]1)N(C)C(=O)CNC(=O)[C@@H](NC(=O)[C@H](C)NC(=O)[C@H](Cc1c[nH]c2ccccc12)NC(=O)[C@H](CCC(N)=O)NC(=O)[C@@H](Cc1ccccc1)NC(=O)CN1CCC(NC(=O)CN2CCN(CC(=O)O)CCN(CC(=O)O)CCN(CC(=O)O)CC2)CC1)C(C)(C)C)C(=O)N1CC(F)(F)C[C@H]1C(N)=O [[^177Lu]Lu-LW02060, metal not drawn]",
    "reported.value": 0.19
  }
]

====

Assay: Ex vivo biodistribution of 177Lu-labeled ligands in PC-3 tumor-bearing mice
Details: mouse, liver, intravenous, 1 h pi, n = 5; read-out: Liver uptake
property.name: tissue uptake at 1 h (%ID/g)

[
  {
    "compound": "CC(C)C[C@H](NC(=O)[C@H](Cc1cnc[nH]1)N(C)C(=O)CNC(=O)[C@@H](NC(=O)[C@H](C)NC(=O)[C@H](Cc1c[nH]c2ccccc12)NC(=O)[C@H](CCC(N)=O)NC(=O)[C@@H](Cc1ccccc1)NC(=O)CN1CCC(NC(=O)CN2CCN(CC(=O)O)CCN(CC(=O)O)CCN(CC(=O)O)CC2)CC1)C(C)(C)C)C(=O)N1CC(F)(F)C[C@H]1C(N)=O [[^177Lu]Lu-LW02060, metal not drawn]",
    "property.name": "tissue uptake at 1 h",
    "unit.abbrev": "%ID/g",
    "reported.value": 0.47
  },
  {
    "compound": "CC(C)C[C@@H](CN1CC(F)(F)C[C@H]1C(N)=O)NC(=O)[C@H](Cc1c[nH]cn1)NC(=O)CN(C)C(=O)[C@@H](NC(=O)[C@H](C)NC(=O)[C@H](Cc1c[nH]c2ccccc12)NC(=O)[C@H](CCC(N)=O)NC(=O)[C@@H](Cc1ccccc1)NC(=O)CN1CCC(NC(=O)CN2CCN(CC(=O)O)CCN(CC(=O)O)CCN(CC(=O)O)CC2)CC1)C(C)C [[^177Lu]Lu-LW02080, metal not drawn]",
    "property.name": "tissue uptake at 1 h",
    "unit.abbrev": "%ID/g",
    "reported.value": 0.27
  }
]
